Form field: pKi (one value per entry).
Target: μ-opiate receptor (Homo sapiens, UniProt P35372)
Sequence (P35372 whole entry, species assumed): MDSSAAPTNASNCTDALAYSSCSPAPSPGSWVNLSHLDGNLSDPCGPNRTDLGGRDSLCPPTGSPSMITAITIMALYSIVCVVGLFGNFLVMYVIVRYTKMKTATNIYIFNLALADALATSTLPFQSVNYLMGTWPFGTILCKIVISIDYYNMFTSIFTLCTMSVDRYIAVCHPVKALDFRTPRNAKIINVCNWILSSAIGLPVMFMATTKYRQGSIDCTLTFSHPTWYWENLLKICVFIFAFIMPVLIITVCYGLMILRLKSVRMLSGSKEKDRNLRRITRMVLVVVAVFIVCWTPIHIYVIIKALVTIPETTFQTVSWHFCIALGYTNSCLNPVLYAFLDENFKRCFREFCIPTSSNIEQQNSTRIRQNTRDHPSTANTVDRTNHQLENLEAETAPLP
pKi: −log10 of the molar value.
property_name: pKi

molecule: BrC1=CN2C(=NC(c3ccccn3)CC2Sc2ccccc2)N=C1 (stereo not drawn)
property_name: pKi
observed_result: 5.60
--
molecule: N#CC1=NC(c2ccccc2)=CN2C1=NC(c1ccccn1)CC2Sc1ccccc1 (stereo not drawn)
property_name: pKi
observed_result: 5.85
--
molecule: NC(=O)C1=NC(Cl)=C(N)N2C1=NC(c1ccccn1)CC2Sc1ccccc1 (stereo not drawn)
property_name: pKi
observed_result: 5.85
